The entries below are paired with their reported TGI.
- Tested on: HCT-15 colon
- test_description: NCI tumour cell line growth inhibition, 48 h
property_label: TGI

- smiles_record: "Cc1nnc(S(=O)(=O)c2ccc(N=Nc3c(N)nc(N)nc3N)cc2)s1"
  property_label: "TGI"
  experimental_value: "> 100 µM"
- smiles_record: "O=C(OC(=O)n1ccc2ccccc21)n1ccc2ccccc21"
  property_label: "TGI"
  experimental_value: "> 100 µM"
- smiles_record: "COc1ccc(/C=C(/C(=O)c2ccc(Cl)cc2)N2C=CC=CC2=C(C#N)C#N)cc1OC"
  property_label: "TGI"
  experimental_value: "6.19 µM"
- smiles_record: "CCc1nc(N)nc(N)c1-c1ccc2nn(-c3ccccc3)[n+]([O-])c2c1"
  property_label: "TGI"
  experimental_value: "18.8 µM"
- smiles_record: "CCOP(=O)(Cc1ccc(CP(=O)(OCC)OCC)n1C)OCC"
  property_label: "TGI"
  experimental_value: "> 100 µM"
- smiles_record: "COc1cc(Nc2cnc3cc(F)c(F)cc3n2)cc(OC)c1OC"
  property_label: "TGI"
  experimental_value: "> 100 µM"

* * *

Recorded TGI values for a group of compounds are listed next.
- System: SNB-78 CNS
- test_description: NCI tumour cell line growth inhibition, 48 h

- compound: "Cc1ccc(SC(C)/C=C/NNC2=NC(c3ccccc3)C(c3ccccc3)=NN2)cc1 (configuration not stated)"
  TGI: "> 100 µM"
- compound: "C=C(CCCCC)CN1CCCC1[C@@](C)(O)CC(=O)OCC (some centres not stated)"
  TGI: "> 100 µM"
- compound: "COC(=O)C12C3C4C1C1C2C3C41C(=O)OC(C)(C)C (configuration not stated)"
  TGI: "> 100 µM"
- compound: "COc1ccc(NC(=O)CCc2cc(-c3ccc(O)c(OC)c3)nc(NC#N)n2)cc1"
  TGI: "> 100 µM"
- compound: "C=C(C=O)[C@@H]1C2OC(=O)C(=C)[C@@H]2CC(O)[C@@]1(C)CC (some centres not stated)"
  TGI: "24.9 µM"
- compound: "O=C(OC(=O)n1ccc2ccccc21)n1ccc2ccccc21"
  TGI: "> 100 µM"
- compound: "COC(=O)C1=C(C)N(NC(=O)c2ccccc2)C(C)(O)C12CCOC2=O (configuration not stated)"
  TGI: "> 100 µM"
- compound: "CC(C)(C)[SiH]12(OC(C(F)(F)F)(C(F)(F)F)c3ccccc31)OC(C(F)(F)F)(C(F)(F)F)c1ccccc12"
  TGI: "25.3 µM"
- compound: "CC(O)C(N=Cc1ccccc1[O-])C(=O)[O-].CC(O)C(N=Cc1ccccc1[O-])C(=O)[O-].[Co+2] (configuration not stated)"
  TGI: "> 100 µM"
- compound: "S=C(N/N=C/c1ccco1)NC12CC3CC(CC(C3)C1)C2"
  TGI: "> 100 µM"
- compound: "O=C(/C=C/c1ccc(O)cc1)OC[C@@H](O)COC1OC(CO)C(O)C(O)C1O (some centres not stated)"
  TGI: "> 100 µM"
- compound: "Cc1ccccc1N1C(=O)/C(=C/c2ccc(N(CCC#N)CCC#N)cc2)N=C1c1cc([N+](=O)[O-])ccc1Cl"
  TGI: "> 100 µM"

* * *

- System: HOP-18 NSCLC
- test_description: NCI tumour cell line growth inhibition, 48 h
Entries and their measured TGI follow.

- compound: "COC(=O)C12C3C4C1C1C2C3C41C(=O)OC(C)(C)C (stereo not drawn)"
  TGI: "> 100 µM"
- compound: "O=S(O)CCCCSSCC(O)C(O)CSSCCCCS(=O)O (stereo not drawn)"
  TGI: "> 100 µM"
- compound: "COc1ccc(NC(=O)CCc2cc(-c3ccc(O)c(OC)c3)nc(NC#N)n2)cc1"
  TGI: "> 100 µM"
